Target: T1, EsCas13d, nuclease-dead (Eubacterium siraeum, UniProt B0MS50, R295A;H300A;R849A;H854A)
T1 sequence: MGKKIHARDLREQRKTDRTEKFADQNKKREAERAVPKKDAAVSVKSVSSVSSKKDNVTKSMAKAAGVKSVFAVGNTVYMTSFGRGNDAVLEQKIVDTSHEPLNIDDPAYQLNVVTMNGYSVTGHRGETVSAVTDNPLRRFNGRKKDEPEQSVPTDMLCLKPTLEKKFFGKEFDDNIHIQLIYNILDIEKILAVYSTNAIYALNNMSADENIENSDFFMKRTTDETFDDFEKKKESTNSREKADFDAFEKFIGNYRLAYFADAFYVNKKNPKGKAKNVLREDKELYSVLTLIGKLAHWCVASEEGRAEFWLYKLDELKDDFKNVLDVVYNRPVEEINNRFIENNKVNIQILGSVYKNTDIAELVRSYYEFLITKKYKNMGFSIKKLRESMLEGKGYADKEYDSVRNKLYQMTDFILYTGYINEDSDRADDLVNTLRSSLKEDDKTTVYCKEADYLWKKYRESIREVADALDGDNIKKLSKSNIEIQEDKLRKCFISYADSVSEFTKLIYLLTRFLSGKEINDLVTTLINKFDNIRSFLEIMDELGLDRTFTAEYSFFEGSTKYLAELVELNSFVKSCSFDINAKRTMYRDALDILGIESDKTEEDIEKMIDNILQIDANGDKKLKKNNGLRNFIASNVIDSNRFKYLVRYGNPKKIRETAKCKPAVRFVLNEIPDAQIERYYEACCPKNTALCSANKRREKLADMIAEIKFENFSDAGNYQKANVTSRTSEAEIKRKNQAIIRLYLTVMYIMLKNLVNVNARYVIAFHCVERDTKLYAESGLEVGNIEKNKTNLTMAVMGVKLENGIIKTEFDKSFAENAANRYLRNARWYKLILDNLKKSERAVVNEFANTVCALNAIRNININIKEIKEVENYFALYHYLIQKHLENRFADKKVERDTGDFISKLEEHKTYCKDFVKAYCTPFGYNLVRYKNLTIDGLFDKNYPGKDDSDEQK
Assay: crRNA (strand 1, pre-loaded); Mg2+; 40 mM Tris-HCl pH 7.5, 150 mM NaCl, 6 mM MgCl2, 1 mM DTT, 0.1% Tween-20, 0.2 mg/ml BSA; 25 C; 10 min per concentration, then washed
Conditions: tags: His6-TwinStrep-SUMO cleaved; N-terminal SNAP kept (SNAP-Surface 488); label: 3' end held by stalled T7 RNA polymerase
Value Type: Kd (nM)
Express your answer in nM, writing the number without its unit.

# binder target 1 insG 3' of 19,insG 3' of 7 (mixed) RNA 1: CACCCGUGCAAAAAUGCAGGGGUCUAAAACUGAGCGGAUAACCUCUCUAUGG RNA 2: GGGAAUGGAUCCACAUCUACGAAUUCGUACCAUGAGAGAGGUUAUCGCGCUCACCGAGAUCGGAAGAGCACACGU ; its Kd = 46

Further cases:
Recorded Kd (binder target 2 MT 5'PFS UAU 3'PFS CCG (mixed) RNA 1: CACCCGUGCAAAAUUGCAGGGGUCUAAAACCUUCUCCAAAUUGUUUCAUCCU RNA 2: GGGAAUGGAUCCACAUCUACGAAUUCUAUAGGAUGAAACAAUUUGGAGAAGCCGAGAUCGGAAGAGCACACGU ): 55

The measured values listed here are drawn from paper PMC10786891.
